Test system: Plasmodium falciparum strain NF54
PROTOCOL SUMMARY: Growth inhibition of Plasmodium falciparum NF54 (chloroquine-sensitive) in vitro, [G-3H]-hypoxanthin incorporation
Type: cell-based
TEST CONTEXT: chloroquine-sensitive strain NF54, 72 h, read-out: IC50 for P. falciparum NF54
ENDPOINT LABEL: IC50 (ng/mL)

- COMPOUND: "CCN(CC)Cc1cc(Nc2ccnc3cc(Cl)ccc23)ccc1O [Amodiaquine, reference compound]"
  TARGET OR SYSTEM: "Plasmodium falciparum strain NF54"
  ENDPOINT LABEL: "IC50"
  READOUT NUMBER: 2.5
- COMPOUND: "Cl.Cl.Clc1ccc2c(N[C@H]3CC[C@H](NCc4ccc5c(c4)OCO5)CC3)ccnc2c1"
  TARGET OR SYSTEM: "Plasmodium falciparum strain NF54"
  ENDPOINT LABEL: "IC50"
  READOUT NUMBER: 2.1
- COMPOUND: "Cl.Cl.Clc1ccc(CCN[C@H]2CC[C@H](Nc3ccnc4cc(Cl)ccc34)CC2)c(Cl)c1"
  TARGET OR SYSTEM: "Plasmodium falciparum strain NF54"
  ENDPOINT LABEL: "IC50"
  READOUT NUMBER: 3.4
- COMPOUND: "Cl.Cl.Fc1cc(CN[C@H]2CC[C@@H](Nc3ccnc4cc(Cl)ccc34)CC2)ccc1Cl"
  TARGET OR SYSTEM: "Plasmodium falciparum strain NF54"
  ENDPOINT LABEL: "IC50"
  READOUT NUMBER: 7.2
- COMPOUND: "CC(C)(CNc1ccnc2cc(Cl)ccc12)NCc1ccc2ccccc2c1.Cl.Cl"
  TARGET OR SYSTEM: "Plasmodium falciparum strain NF54"
  ENDPOINT LABEL: "IC50"
  READOUT NUMBER: 15.9
- COMPOUND: "COc1ccc(CN[C@H]2CC[C@H](Nc3ccnc4cc(Cl)ccc34)CC2)cc1.Cl.Cl"
  TARGET OR SYSTEM: "Plasmodium falciparum strain NF54"
  ENDPOINT LABEL: "IC50"
  READOUT NUMBER: 1.9
- COMPOUND: "COc1ccc(CNC(C)(C)CNc2ccnc3cc(Cl)ccc23)c(OC)c1.Cl.Cl"
  TARGET OR SYSTEM: "Plasmodium falciparum strain NF54"
  ENDPOINT LABEL: "IC50"
  READOUT NUMBER: 11
- COMPOUND: "Cl.Cl.Clc1cccc(CCN[C@H]2CC[C@H](Nc3ccnc4cc(Cl)ccc34)CC2)c1"
  TARGET OR SYSTEM: "Plasmodium falciparum strain NF54"
  ENDPOINT LABEL: "IC50"
  READOUT NUMBER: 1.6
